# assayed.system: GRID2IP_2, A4D2P6
# Sequence (A4D2P6 272-370): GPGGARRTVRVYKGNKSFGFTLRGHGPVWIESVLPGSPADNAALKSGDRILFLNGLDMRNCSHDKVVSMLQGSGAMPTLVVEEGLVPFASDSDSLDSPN
# experimental.details: holdup assay
# Set-up: key: below the threshold = too weak to quantify, mostly under pKd 3.1 to 4
# test.context: plain residues with an end cap or a label only (N-terminal biotin on a linker: ado-ado)
property.label: pKd

binder: SARSRLSSNL [HCN2, Q9UL51]
meas.value: 4.37
//
binder: MLSKQSESAI [FLVCR1, Q9Y5Y0]
meas.value: below the threshold
//
binder: YNNCLEILRV [DCAF7, P61962]
meas.value: below the threshold
//
binder: TKGPRGPTRV [SAPCD1, Q5SSQ6]
meas.value: 4.58
//
binder: QSARLWETSI [ADAM22, Q9P0K1]
meas.value: 4.3
//
binder: DDPSTAETVL [ABCA7, Q8IZY2]
meas.value: below the threshold
//
binder: SGSLKLMTTV [DACT1, Q9NYF0]
meas.value: 3.97
//
binder: CLREWCDAFL [BANF1, O75531]
meas.value: below the threshold
